# System: HL-60(TB) leukemia
# Assay text: NCI tumour cell line growth inhibition, 48 h
Is TGI at least 40 µM? Then Yes. If not, No.

Check this compound for TGI at or above 40 µM: Cc1cc(Cl)nc(N(CCCNc2ccnc3cc(Cl)ccc23)Cc2ccco2)n1 No

Same question, c1cc2c(cn1)Nc1ccncc1S2 this time Yes

Okay, and Nc1ncnc2c1ncn2C1OC(CO)C(O)C1N (stereo unspecified) ? Yes

Query O=C(Nc1nc2c(ncn2C2OC(CO)C(O)C2O)c(=O)[nH]1)c1ccccc1 (stereo unspecified) next Yes

Follow-up entry: COC(=O)CSSCc1ccc([N+](=O)[O-])cc1 Yes

Next entry: N#C/C(=C/NC(=S)c1ccncc1)C(N)=O Yes

Same read-out for Cn1c(-c2c(N)n(CCCN3CCOCC3)c3nc(C#N)c(C#N)nc23)nc2ccccc21 ? No

Subsequent entry: CCOC(=O)C1=C(C)N(c2ccc(OC)cc2)C2(O)C=CC(=O)C3=C(O)c4ccccc4C(=O)C312 (stereo unspecified) No

Then CCOC(=O)Cc1nc2c(N)ncnc2n1C1OC(COC(C)=O)C(OC(C)=O)C1OC(C)=O (stereo unspecified) ? Yes

Quick one: NC(=S)c1c(N)n(C2OC(CO)C(O)C2O)c2ncnc(N)c12 (stereo unspecified) No

Another compound to look at: COC(=O)c1ccc(Nc2nc3nc[nH]c3c(=O)[nH]2)cc1 Yes

Here is the next compound: C(=C\N1CCCCC1)/c1nnnn1-c1ccccc1 No

Try this compound next: CCN(CC)c1ccc2cc(C(=O)Nc3ccccn3)c(=N)oc2c1 Yes

Same thing, different compound: O=C1Nc2ccccc2/C1=c1\[nH]c(=O)/c(=C\c2ccc(OCc3ccccc3)cn2)[nH]c1=O Yes

Cool, now CCCCCCCCCCCC[n+]1ccc2ccccc2c1 No

Please answer likewise for COc1ccc(N(C)c2nc(N)nc3sc4c(c23)CCCC4)cc1 No

Further, for CNc1ncc(-c2nnnn2-c2ccccc2)c(CN(C)C)n1 ? Yes

Could you do the same for C=C1C(=O)OC2/C=C(/C)C(OC(C)=O)C/C=C(\C)C(OC(=O)C3(C)OC3C)C(O)C12 (stereo unspecified) , please? Yes

Same question for CC1=C(C(=O)Nc2ccc(Cl)c(C(=O)OC(C)C)c2)SCCO1 please. Yes

Another: COc1ccc(/C=N/n2cnc3[nH]c(C)c(Cc4ccccc4)c3c2=N)cc1 Yes

COC(=O)[C@H]1CCCN1C(=O)[C@H]1CCCN1C(=O)[C@H](Cc1c[nH]c2ccccc12)NC(=S)Nc1cc(C(F)(F)F)cc(C(F)(F)F)c1 , same question. Yes

Could you do the same for Cc1ccc(NC(=O)C(=O)CC(=O)c2sc(Nc3c(C)cccc3C)nc2C)cc1C , please? Yes

Also check COc1cccc(/C=C2\COc3ccc(-c4ccccc4)cc3C2=O)c1 Yes

Try this compound too: Cc1nc2ccccc2c(/C=C/c2ccc(Cl)cc2)c1C(=O)/C=C/c1ccc(Cl)cc1 No

And then CN1CCN(CCCOc2cccc3nc(Nc4ccc(Cl)c(C(F)(F)F)c4)ccc23)CC1 , what is it? No

Try CC(=O)C1=C(O)C2C3c4c[nH]c5cccc(c45)CC3C(C)(C)N2C1=O (stereo unspecified) next. No

Same question, CCSc1c2ccccc2c(-c2nc(F)nc(F)n2)n1CCc1ccccc1 this time Yes

Another: Cc1ccc2c(c1)C(=O)C(C1OC(=O)c3ccccc31)C2 (stereo unspecified) Yes

Then what about the compound CC(=O)OC1COC(n2c(=S)n(-c3ccccc3)c(=O)c3ccccc32)C(OC(C)=O)C1OC(C)=O (stereo unspecified) ? Yes

Now consider C/C(=C\c1csc(C)n1)[C@@H]1C[C@@H]2O[C@@H]2CCC[C@H](C)[C@H](O)[C@@H](C)C(=O)C(C)(C)[C@@H](O)CC(=O)O1 . Yes

What do you have for CC(=O)NC(CC(C)C)C(=O)NC(Cc1ccccc1)C(=S)N1CCCC1 (stereo unspecified) ? Yes

Query CCOC(=O)c1cnc2c(C)cccc2c1Nc1ccc(C(C)=O)cc1 next Yes

What do you get for C[C@H]1S[C@H](c2c(Cl)cccc2Cl)N2Cc3ccccc3N=C12 ? Yes

// next record CC1=C(C(=O)Nc2cc(F)c(F)cc2F)C(c2ccc([N+](=O)[O-])cc2)C(C(=O)Nc2cc(F)c(F)cc2F)=C(C)N1 No

Similarly, COc1cc(-c2ccccc2N)c2cccnc2c1OC ? No

What do you get for O=C1C(CN2CCOCC2)CCCC1CN1CCOCC1 (stereo unspecified) ? No

Let us now turn to CCOC(=O)C1(C)CCCCC(=O)N1 (stereo unspecified) Yes

Next record, please: O=C1/C=C/[C@@H](O)[C@@H]2C[C@@H](O)C[C@H]2/C=C/CCC[C@H](C(F)(F)F)O1 No

Further, for Cn1c(N/N=C/c2ccccc2)nc(-c2ccc([N+](=O)[O-])cc2)c(C#N)c1=O ? Yes

====

# System: HCC-2998 colon
# Assay text: NCI tumour cell line growth inhibition, 48 h
So I've got a bunch of compounds here, and I need their TGI values.
Kindly provide the numeric value in µM only, without the unit symbol.

I would be grateful if you could share the reported TGI for COc1cc(C2c3cc4c(cc3OC(N3CCNCC3)C2C)OCO4)cc(OC)c1OC (configuration not stated) . 5.83

Follow-up item: CCc1nc2ccc(NCCN(C)C)c3c(=O)c4ccccc4n1c23 5.8

And COC(=O)[C@H]1CCCN1C(=O)[C@H]1CCCN1C(=O)[C@H](Cc1c[nH]c2ccccc12)NC(=S)Nc1cc(C(F)(F)F)cc(C(F)(F)F)c1 ? 5.96

Now try CC(=O)C1=C(O)C2C3c4c[nH]c5cccc(c45)CC3C(C)(C)N2C1=O (configuration not stated) . 63.4

What about this compound? N=c1c2c(=N)n3c(nc2nc2n1-c1ccccc1Sc1ccccc1-2)sc1cc(Cl)ccc13 4.97

Moving on to the next compound: C=CC(=O)N1CC2(CC(n3nc(-c4ccc5c(cnn5C)c4)c(-c4c(Cl)c(C)cc5[nH]ncc45)c3C)C2)C1 3.36

Thanks! And O=C1C(CN2CCOCC2)CCCC1CN1CCOCC1 (configuration not stated) ? 10.3

====

# Tested on: KM12 colon
# Assay text: NCI tumour cell line growth inhibition, 48 h
Observation type: GI50

Which GI50 value is on record for O=C(COc1cccc(/C=C2\CSc3ccccc3C2=O)c1)Nc1nccs1 ? 1.53 µM

Would you mind doing COC(=O)[C@H]1CCCN1C(=O)[C@H]1CCCN1C(=O)[C@H](Cc1c[nH]c2ccccc12)NC(=S)Nc1cc(C(F)(F)F)cc(C(F)(F)F)c1 as well? 4.47 µM

Also, O=[N+]([O-])c1cccc(C2CC(c3ccccc3)=Nc3ccccc3S2)c1 (stereo unspecified) please. 6.32 µM

Same for COc1cc2c3c(n(C)c(=O)c2cc1OC)-c1ccc(C#N)cc1C3=O > 100 µM

Do the same for CCOC(=O)c1cnc2c(C)cccc2c1Nc1ccc(C(C)=O)cc1 please 51.2 µM

Note, next up: CCCCCCC[CH2][Sn]1([CH2]CCCCCCC)[O]C(=O)c2cccnc2[O]1 > 100 µM

====

Provide the reported TGI of each item.
# System: COLO 205 colon
# Assay text: NCI tumour cell line growth inhibition, 48 h
All answers are understood in µM, so give the number only.

State the recorded TGI for this entry: C/C(=C\c1csc(C)n1)[C@@H]1C[C@@H]2O[C@@H]2CCC[C@H](C)[C@H](O)[C@@H](C)C(=O)C(C)(C)[C@@H](O)CC(=O)O1 0.0804

Then this molecule: O=C(Nc1nc2ccccc2s1)Nc1ccc([N+](=O)[O-])cc1Cl 32.9

What about this molecule? C[Si](C)(C)C1=C([Si](C)(C)C)C(Cl)(Cl)C1=O 4.87

Next molecule up: CN1CCN(CCCOc2cccc3nc(Nc4ccc(Cl)c(C(F)(F)F)c4)ccc23)CC1 3.35

What do you get for CO[C@H]1C[C@@H]2CC[C@@H](C)[C@@](O)(O2)C(=O)C(=O)N2CCCC[C@H]2C(=O)O[C@H]([C@H](C)C[C@@H]2CC[C@@H](OCCO)[C@H](OC)C2)CC(=O)[C@H](C)C=C(C)[C@@H](O)[C@@H](OC)C(=O)[C@H](C)C[C@H](C)/C=C/C=C/C=C1C ? 30.1

CSC(=Nc1ccccc1)/N=C(\SCc1ccccc1)N(C)C ? 1.58

Same again, this time with COc1cc(C2c3cc4c(cc3OC(N3CCNCC3)C2C)OCO4)cc(OC)c1OC (centres undefined) 2

And for NS(=O)(=O)OCCCCCCCOS(N)(=O)=O ? 814

Subsequent entry: CN(C)c1cccc(NC2=NCCO2)c1 41.3

Can you handle CN(Cc1cnc2nc(N)nc(N)c2n1)c1ccc(C(=O)NC(CCC(=O)O)C(=O)O)cc1Br (centres undefined) next? 17.4

Record: COc1cc2cc(Oc3ccc(NC(=O)Nc4ccc(Cl)c(Cl)c4)cc3)c(C)nc2cc1OC 6.5

Follow-up item: C[C@H]1S[C@H](c2c(Cl)cccc2Cl)N2Cc3ccccc3N=C12 25.2

Input COc1ccc(N=N/C(C(=O)C(F)(F)F)=C(\O)c2ccc(Cl)cc2)cc1 25.1

Try this molecule next: O=C(COc1cccc(/C=C2\CSc3ccccc3C2=O)c1)Nc1nccs1 18.9

Record: CN(C)CCNC(=O)c1cccc2c1Oc1c(cccc1[N+](=O)[O-])O2 4.28

Thanks! And CCC(=O)c1c(C(F)(F)F)n([O-])c2cc(F)c(F)cc2[n+]1=O ? 3.16

And the next one, COC(=O)[C@H]1CCCN1C(=O)[C@H]1CCCN1C(=O)[C@H](Cc1c[nH]c2ccccc12)NC(=S)Nc1cc(C(F)(F)F)cc(C(F)(F)F)c1 ? 4.28

Item: C/C1=C\C=C(\C(C)C)CC/C(C(=O)O)=C\CC/C(C)=C/CC1 50.6

Field entry: CCOC(=O)Oc1ccc2c(c1)c(=O)c1c(NCCN(CC)CC)ccc3nnn2c31 14.9

Also, COc1cc(CCc2ccc(N)cc2)cc(OC)c1OC please. 53.1
